# Procedure Summary: Inhibition of Bacillus pasteurii CCM 2056 urease by berthelot colorimetric assay
# Design: species or system Sporosarcina pasteurii
Parameter Measured: Ki (µM)
Just the number please, in µM, no unit attached.

Guide cases for Ki, answers given:
| Compound | Value Units | Ki |
| --- | --- | --- |
| O=C(NCP(=O)(O)CO)c1ccccc1 | µM | 31.9 |
| NCC(=O)NCP(=O)(O)CO | µM | 30.5 |
| CNCC(=O)NCP(=O)(O)CO | µM | 10.6 |

Ask: Query: Ki; subject: O=C(NCP(O)(=S)CO)OCc1ccccc1 (stereo not given)
Reply: 428

Ask: Given the entry CNCP(=O)(O)CO , report its measured Ki.
Reply: 0.43

Ask: Query (compound): O=C(CNC(=O)OCc1ccccc1)NCP(=O)(O)CO ; field requested: Ki
Reply: 1.35

Ask: Given CN(C)CC(=O)NCP(=O)(O)CO , state its recorded Ki.
Reply: 1.15

Ask: Data request, read-out Ki, for NCP(=O)(O)CO
Reply: 95

Ask: Requested field: Ki. Item: O=C(NCP(=O)(O)CO)OCc1ccccc1
Reply: 376

Ask: Return reported Ki; argument: CN(C)CP(=O)(O)CO
Reply: 5

---

# Procedure Summary: Inhibition of Proteus vulgaris CCM 1956 urease by berthelot colorimetric assay
Measured log10(Ki) of individual entries
Give log10 of Ki, with Ki taken in µM.

| Given Smiles | log10(Ki) |
| --- | --- |
| CN(C)CP(=O)(O)CO | 0.49 |

Ask: What value of log10(Ki) has been recorded for this entry: NCC(=O)NCP(=O)(O)CO
Reply: 0.86

Ask: Form field: reported log10(Ki) of CNCC(=O)NCP(=O)(O)CO
Reply: 1.21

Ask: Entry CP(=O)(O)CNC(=O)CN has what log10(Ki)?
Reply: 1.48

Ask: For the compound shown here, O=C(NCP(=O)(O)CO)OCc1ccccc1 , give the reported log10(Ki).
Reply: 1.62

Ask: Using the record for O=C(NCP(=O)(O)CO)c1ccccc1 , report its log10(Ki).
Reply: 0.96

Each recorded value in this set is attributed to ChEMBL document CHEMBL1212918.
